Target: human CYP2C19 (Homo sapiens)
Sequence (P33261 whole entry): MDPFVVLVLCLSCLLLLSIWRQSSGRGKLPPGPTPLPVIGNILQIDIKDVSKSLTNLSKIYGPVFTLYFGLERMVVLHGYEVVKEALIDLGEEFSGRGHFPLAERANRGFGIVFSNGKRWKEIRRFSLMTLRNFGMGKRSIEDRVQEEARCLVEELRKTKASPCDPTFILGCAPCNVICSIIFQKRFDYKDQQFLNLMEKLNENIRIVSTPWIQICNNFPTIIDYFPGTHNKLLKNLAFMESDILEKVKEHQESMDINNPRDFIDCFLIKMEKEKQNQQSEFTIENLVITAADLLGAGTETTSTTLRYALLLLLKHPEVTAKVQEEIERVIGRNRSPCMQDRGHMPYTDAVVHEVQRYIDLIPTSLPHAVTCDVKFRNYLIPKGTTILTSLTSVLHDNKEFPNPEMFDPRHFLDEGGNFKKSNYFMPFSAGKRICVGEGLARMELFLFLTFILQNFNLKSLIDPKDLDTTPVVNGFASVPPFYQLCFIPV
Assay: biochemical
Conditions: CYP2C19 IC50 (half-maximal inhibitory concentration)
pIC50: −log10 of the molar value. Structures can show the parent of a compound that is named as a salt.
Is pIC50 at least 6? Then y. If not, n.

- compound: "Cc1cc(O)c(C(C)(C)C)cc1Sc1cc(C(C)(C)C)c(O)cc1C"
  tested_target: "human CYP2C19 (Homo sapiens)"
  label_class: "y"
- compound: "CCN(CC)c1c([N+](=O)[O-])cc(C(F)(F)F)c(N)c1[N+](=O)[O-]"
  tested_target: "human CYP2C19 (Homo sapiens)"
  label_class: "n"
- compound: "OCc1c2ccccc2cc2ccccc12"
  tested_target: "human CYP2C19 (Homo sapiens)"
  label_class: "n"
- compound: "C[Si](Cn1cncn1)(c1ccc(F)cc1)c1ccc(F)cc1"
  tested_target: "human CYP2C19 (Homo sapiens)"
  label_class: "y"
- compound: "CN(C)c1ccc(Cc2ccc(N(C)C)cc2)cc1"
  tested_target: "human CYP2C19 (Homo sapiens)"
  label_class: "y"
- compound: "O=C1c2ccccc2C(=O)C1C(=O)C(c1ccccc1)c1ccc(Cl)cc1 (centres unmarked)"
  tested_target: "human CYP2C19 (Homo sapiens)"
  label_class: "n"
- compound: "CCCOC/C(=N\\c1ccc(Cl)cc1C(F)(F)F)n1ccnc1"
  tested_target: "human CYP2C19 (Homo sapiens)"
  label_class: "y"
- compound: "Clc1ccc(C2(Cn3cncn3)CC(Br)CO2)c(Cl)c1 (centres unmarked)"
  tested_target: "human CYP2C19 (Homo sapiens)"
  label_class: "y"
- compound: "CC(C)C[C@H]1C(=O)N2CCC[C@H]2[C@]2(O)O[C@](NC(=O)[C@@H]3C=C4c5cccc6[nH]c(Br)c(c56)C[C@H]4N(C)C3)(C(C)C)C(=O)N12 [Bromocriptine mesylate]"
  tested_target: "human CYP2C19 (Homo sapiens)"
  label_class: "n"
- compound: "COC(=O)N(C(=O)N1CO[C@@]2(C(=O)OC)Cc3cc(Cl)ccc3C2=N1)c1ccc(OC(F)(F)F)cc1"
  tested_target: "human CYP2C19 (Homo sapiens)"
  label_class: "y"
- compound: "CC(C)C(O)(c1ccc(OC(F)(F)F)cc1)c1cncnc1 (centres unmarked)"
  tested_target: "human CYP2C19 (Homo sapiens)"
  label_class: "n"
- compound: "COP(=S)(Oc1cc(Cl)c(Br)cc1Cl)c1ccccc1 (centres unmarked)"
  tested_target: "human CYP2C19 (Homo sapiens)"
  label_class: "y"
- compound: "Nc1ccc2c(c1)C(=O)c1ccccc1C2=O"
  tested_target: "human CYP2C19 (Homo sapiens)"
  label_class: "n"
- compound: "N#CC(CCc1ccc(Cl)cc1)(Cn1cncn1)c1ccccc1 (centres unmarked)"
  tested_target: "human CYP2C19 (Homo sapiens)"
  label_class: "y"
- compound: "OC(c1ccc(Cl)cc1)(c1ccc(Cl)cc1)C(Cl)(Cl)Cl"
  tested_target: "human CYP2C19 (Homo sapiens)"
  label_class: "y"
- compound: "CC1(C)CCC(Cc2ccc(Cl)cc2)C1(O)Cn1cncn1 (centres unmarked)"
  tested_target: "human CYP2C19 (Homo sapiens)"
  label_class: "y"
- compound: "C[C@@H]1C[C@H]2[C@@H]3CCC4=CC(=O)C=C[C@]4(C)[C@@]3(Cl)[C@@H](O)C[C@]2(C)[C@@]1(OC(=O)c1ccco1)C(=O)CCl [Mometasone furoate, reference compound]"
  tested_target: "human CYP2C19 (Homo sapiens)"
  label_class: "n"
- compound: "OC(Cn1cncn1)(c1ccc(F)cc1)c1ccccc1F (centres unmarked)"
  tested_target: "human CYP2C19 (Homo sapiens)"
  label_class: "n"
- compound: "Cc1c(O)cccc1C(=O)N[C@@H](CSc1ccccc1)[C@H](O)CN1C[C@H]2CCCC[C@H]2C[C@H]1C(=O)NC(C)(C)C [Nelfinavir mesylate]"
  tested_target: "human CYP2C19 (Homo sapiens)"
  label_class: "n"
- compound: "CC(C)=CCOc1c2occc2cc2ccc(=O)oc12"
  tested_target: "human CYP2C19 (Homo sapiens)"
  label_class: "n"
- compound: "CC(CN1c2ccccc2Sc2ccccc21)N(C)C (centres unmarked) [Promethazine hydrochloride]"
  tested_target: "human CYP2C19 (Homo sapiens)"
  label_class: "n"
- compound: "C=CCOC(Cn1ccnc1)c1ccc(Cl)cc1Cl (centres unmarked)"
  tested_target: "human CYP2C19 (Homo sapiens)"
  label_class: "y"
- compound: "COc1c2occc2c(OC)c2c(=O)cc(C)oc12"
  tested_target: "human CYP2C19 (Homo sapiens)"
  label_class: "n"
- compound: "CN(C)CCN(Cc1ccccc1)c1ccccn1 [Tripelennamine citrate]"
  tested_target: "human CYP2C19 (Homo sapiens)"
  label_class: "n"
- compound: "CCOc1cc(C(C)(C)C)ccc1C1COC(c2c(F)cccc2F)=N1 (centres unmarked)"
  tested_target: "human CYP2C19 (Homo sapiens)"
  label_class: "n"
- compound: "CCOCn1c(-c2ccc(Cl)cc2)c(C#N)c(Br)c1C(F)(F)F"
  tested_target: "human CYP2C19 (Homo sapiens)"
  label_class: "n"
- compound: "COCCOC(=O)C1=C(C)NC(C)=C(C(=O)OC/C=C/c2ccccc2)C1c1cccc([N+](=O)[O-])c1 (centres unmarked)"
  tested_target: "human CYP2C19 (Homo sapiens)"
  label_class: "n"
- compound: "CCN(CC)c1nc(C)cc(OP(=S)(OC)OC)n1"
  tested_target: "human CYP2C19 (Homo sapiens)"
  label_class: "y"
